Value source: the supplement of paper PMC8371130

Tested on: HL-1
measurement_notes: relative cell viability (CellTiter-Glo) vs DMSO control (% of DMSO control); higher = more viable cells
experimental_conditions: oxygen condition: normoxia 72 h; 40 nM
Simple rule here: relative cell viability less than 100 is y, otherwise n.

Use these answered entries as a reference point.
# compound, assayed_system, class_label
rows = [
    ("CC(C)C[C@H](NC(=O)[C@H](Cc1ccccc1)NC(=O)c1cnccn1)B(O)O", "HL-1", "y"),
    ("C[C@H](CS)C(=O)N1CCC[C@H]1C(=O)O", "HL-1", "n"),
    ("C#C[C@]1(OC(C)=O)CC[C@H]2[C@@H]3CCC4=C[C@@H](OC(C)=O)CC[C@@H]4[C@H]3CC[C@@]21C [Ethynodiol diacetate]", "HL-1", "n"),
]

Consider now this further compound.
relative cell viability under 100? Item: `CNC(=C[N+](=O)[O-])NCCSCc1csc(CN(C)C)n1`
n

* * *

Test system: HL-1
measurement_notes: relative cell viability (CellTiter-Glo) vs DMSO control (% of DMSO control); higher = more viable cells
experimental_conditions: oxygen condition: normoxia 72 h; 200 nM
Please provide measured relative cell viability for the entries that follow.
One number for each entry.

Use these answered entries as a reference point.
# compound, assayed_system, relative cell viability
rows = [
    ("CCN1CCN(c2cc(-c3ccc(F)cc3)c3c(n2)CCCCCC3)CC1", "HL-1", 93.3),
    ("O=S(=O)(O)c1cc(O)ccc1O [Ethamsylate]", "HL-1", 101),
    ("CCCC(=O)OCOC(=O)C1=C(C)NC(C)=C(C(=O)OC)C1c1cccc(Cl)c1Cl (stereo not given)", "HL-1", 91.8),
    ("CC1(C)O[C@@H]2[C@@H](CO[C@@]3(COS(N)(=O)=O)OC(C)(C)O[C@@H]23)O1 [Topiramate]", "HL-1", 107),
]

For the compound shown here, `NC(=O)c1ncn([C@@H]2O[C@H](CO)[C@@H](O)[C@H]2O)n1` , give the reported relative cell viability.
104

* * *

Tested on: HL-1
measurement_notes: relative cell viability (CellTiter-Glo) vs DMSO control (% of DMSO control); higher = more viable cells
experimental_conditions: oxygen condition: hypoxia 48 h (1% O2) + reoxygenation 24 h; 5000 nM
Where a name gives a salt, the structure may show the parent alone.
outcome_measure: relative cell viability
Give bare numbers.

Guide cases for relative cell viability, answers given:
# compound, outcome_measure, readout_value
rows = [
    ("O=c1c(-c2ccc(O)cc2)coc2cc(O)cc(O)c12", "relative cell viability", 110),
    ("O=C(Nc1ccccc1)OCC(CN1CCCCC1)OC(=O)Nc1ccccc1 (stereo not drawn) [Diperodon HCl]", "relative cell viability", 98.6),
    ("NC(=O)c1cn(Cc2c(F)cccc2F)nn1 [Rufinamide]", "relative cell viability", 112),
    ("CS(=O)(=O)c1ccc(C(=O)Nc2ccc(Cl)c(-c3ccccn3)c2)c(Cl)c1", "relative cell viability", 117),
    ("O=c1oc2c(O)c(O)cc3c(=O)oc4c(O)c(O)cc1c4c23", "relative cell viability", 124),
    ("COc1cc2ncnc(Nc3ccc(F)c(Cl)c3)c2cc1OCCCN1CCOCC1", "relative cell viability", 100),
    ("COc1cccc2c1C(=O)c1c(O)c3c(c(O)c1C2=O)C[C@@](O)(C(=O)CO)C[C@@H]3O[C@H]1C[C@H](N)[C@@H](O)[C@H](C)O1 [Epirubicin Hydrochloride]", "relative cell viability", 91.5),
    ("CCCCOc1ccc(OCCCN2CCOCC2)cc1 [Pramoxine HCl]", "relative cell viability", 118),
    ("CCN1CCN(c2cc(-c3ccc(F)cc3)c3c(n2)CCCCCC3)CC1", "relative cell viability", 49.4),
    ("COc1cc(OC)c(C(=O)CCCN2CCCC2)c(OC)c1 [Buflomedil HCl]", "relative cell viability", 114),
]

Here are 3 compounds. What values of relative cell viability were reported for them?
1. O=C1[C@H](CC[C@H](O)c2ccc(F)cc2)[C@@H](c2ccc(O)cc2)N1c1ccc(F)cc1
2. CCOc1nc2cccc(C(=O)O)c2n1Cc1ccc(-c2ccccc2-c2nnn[nH]2)cc1
3. CCN1CC(CCN2CCOCC2)C(c2ccccc2)(c2ccccc2)C1=O (stereo not drawn) [Doxapram HCl]

1: 115; 2: 109; 3: 107

Respectfully, I request relative cell viability for each entry included below.
1. CC1(C)Cc2c(-c3ccccc3)c(-c3ccc(Cl)cc3)c(CC(=O)O)n2C1
2. C=C(c1ccc(C(=O)O)cc1)c1cc2c(cc1C)C(C)(C)CCC2(C)C
3. Cc1cc(N)c2ccccc2[n+]1CCCCCCCCCC[n+]1c(C)cc(N)c2ccccc21 [Dequalinium chloride]
4. Cc1ccc(NC(=O)c2ccc(CN3CCN(C)CC3)cc2)cc1Nc1nccc(-c2cccnc2)n1 [Imatinib]
5. Cc1ccccc1C(=O)Nc1ccc(C(=O)N2CCCC(O)c3cc(Cl)ccc32)c(C)c1 (stereo not drawn)

105
107
112
107
110
